# tested target: T1, His-tagged human B7-H3 (human, UniProt Q5ZPR3-2 29-245, limits assumed)
# T1 construct: Bought His-tagged protein coated on the ELISA plate; also called hu B7-H3; CD276
# T1 sequence (looked up): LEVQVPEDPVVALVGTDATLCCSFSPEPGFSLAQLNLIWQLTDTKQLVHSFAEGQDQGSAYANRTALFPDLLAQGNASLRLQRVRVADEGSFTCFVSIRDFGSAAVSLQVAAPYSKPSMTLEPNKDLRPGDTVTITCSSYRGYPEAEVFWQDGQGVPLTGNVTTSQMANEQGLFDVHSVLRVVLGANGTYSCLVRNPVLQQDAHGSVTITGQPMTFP
# assay overview: ELISA, coated His-tagged antigen, scFv-Fc 1 ug/ml
# key: entry, value: ELISA OD450 @ 1 ug/ml
Express it in OD450; write the number only.

[
  {
    "binder": "40579p1.E5 (scFv, V domains shown, Tested as scFv-Fc (Expi293 supernatant)) VH: EVQLLESGGGLVQPGGSLRLSCAASGFTFSDDWMTWVRQAPGKGLEWVSAINWNGNSTHYADSVKGRFTVSRDNSKNTLYLQMNSLRAEDTAVYYCAKSRTTYYSSMDVWGQGTTVTVSS VL: EIVLTQSPGTLSLSPGERATLSCRASQTVGSYLAWYQQKPGQAPRLLIYGASSRATGIPARFSGSGSGTDFTLTISSLQSEDFAVYYCQHYYDWPPYSFGGGTKVEIK",
    "units": "OD450",
    "numeric readout": 1.95
  }
]

Record 40511p1.1.G3 (scFv, V domains shown, Tested as scFv-Fc (Expi293 supernatant)) VH: DVQLVESGGGVVRPGESLTLSCAASGFTINSYAVSWVRQAPGEGLEWVSGISGSGVRYYADSVKGRFTISRDDSNNTLYLQMNSLRAEDTAVYYCARSNKVTWNNFFDYWGLGTLVTVSS VL: EVVLTQSPGTLTLSPGERATLSCRASRSILTSLAWYQQKPGQAPRLLIYNTVTRATGIPARFSGSGSGTEFTLTINSLQSEDFAVYYCQQYYDWPPLTFGGGTKVEIK . Reported ELISA OD450 @ 1 ug/ml: 2.13

Record 40633p1.2.D1 (scFv, V domains shown, Tested as scFv-Fc (Expi293 supernatant)) VH: EVQLLESGGGLVQPGGSLRLSCAASGFTFDVYGMSWVRQAPGKGLEWVSAINWNGGSTYYADSVKGRFTISRDNSENTLYLQMNSLRAEDTAVYYCAKEKWKHFIYYGMDVWGQGTTVTVSS VL: QSVLTQPASASGTPGQTVSISCSGSSSNIDSNTANWYQQLPGTAPKLLIYSNNQRPSGVPDRFSGSKSDTSASLAISGLQSEDEGDYYCSAWDDNLNGWLFGGGTKLTVL . Reported ELISA OD450 @ 1 ug/ml: 1.49

Record 40633p1.1.G5 (scFv, V domains shown, Tested as scFv-Fc (Expi293 supernatant)) VH: EVQLLESGGGLVQPGGSLRLSCAASGFIVNYYGMSWVRQPPGKGLEWVSAIKQDGSEKYYADSVKGRFTISRDNSKTTLYLQMNSLRAEDTAVYYCARHWNDYSNGMNVWGQGTTVTVSS VL: QSVLTQPPSASGTPGQRVTISCSGSWSNIGSYNSHWYQKLPGTAPKLLIYTTDRRPSGVPDRFSGSKSGTSASLAISGLQSEDEADYYCGTWDDSLNVWVFGGGTKLTVL . Reported ELISA OD450 @ 1 ug/ml: 0.794
